# ASSAY TARGET: MC4R (Homo sapiens, UniProt P32245)
# Sequence (P32245 whole entry): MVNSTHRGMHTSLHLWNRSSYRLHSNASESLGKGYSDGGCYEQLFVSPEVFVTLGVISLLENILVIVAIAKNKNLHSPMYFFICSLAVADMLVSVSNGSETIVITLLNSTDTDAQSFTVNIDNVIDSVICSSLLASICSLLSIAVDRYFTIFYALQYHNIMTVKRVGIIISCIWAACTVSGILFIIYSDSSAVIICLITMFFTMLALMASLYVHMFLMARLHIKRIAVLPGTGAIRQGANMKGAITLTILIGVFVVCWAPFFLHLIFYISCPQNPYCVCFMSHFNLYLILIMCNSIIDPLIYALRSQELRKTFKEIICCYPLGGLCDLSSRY
# ASSAY METHOD TEXT: PathHunter β-arrestin assay
# CONDITION DETAILS: antagonist mode vs EC80 of control agonist, 10-point curve
MEASUREMENT KIND: IC50 (µM)
Answers are plain numbers, in µM.

Quick one: IC50 of COC(=O)[C@@H](NC(=O)c1nn(Cc2ccc(F)cc2)c2ccccc12)C(C)C [AMB-FUBINACA] ? 5.85

* * *

# ASSAY TARGET: DRD5 (Homo sapiens, UniProt P21918)
# Sequence (P21918 whole entry): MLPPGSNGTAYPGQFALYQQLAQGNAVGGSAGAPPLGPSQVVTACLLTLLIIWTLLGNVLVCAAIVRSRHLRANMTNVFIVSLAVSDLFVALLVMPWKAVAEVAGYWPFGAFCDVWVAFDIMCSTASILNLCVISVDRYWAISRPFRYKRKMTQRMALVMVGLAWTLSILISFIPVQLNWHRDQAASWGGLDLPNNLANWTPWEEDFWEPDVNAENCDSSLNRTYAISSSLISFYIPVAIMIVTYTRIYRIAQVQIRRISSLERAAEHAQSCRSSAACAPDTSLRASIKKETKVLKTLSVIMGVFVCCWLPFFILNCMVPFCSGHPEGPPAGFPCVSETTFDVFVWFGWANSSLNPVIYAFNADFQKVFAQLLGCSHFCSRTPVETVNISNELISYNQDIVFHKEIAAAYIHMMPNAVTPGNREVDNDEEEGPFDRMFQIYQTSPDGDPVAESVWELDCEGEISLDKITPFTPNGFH
# ASSAY METHOD TEXT: PathHunter β-arrestin assay
# Format: cell-based
# CONDITION DETAILS: antagonist mode vs EC80 of control agonist, 10-point curve
MEASUREMENT KIND: IC50 (µM)
Numbers only, in µM.

Query (compound): COC(=O)[C@@H](NC(=O)c1nn(Cc2ccc(F)cc2)c2ccccc12)C(C)C ; field requested: IC50 10.7

The reported measurements were obtained from paper PMC9798004.
